- STUDY_SYSTEM: HTRA2, O43464
- Sequence (O43464 355-458): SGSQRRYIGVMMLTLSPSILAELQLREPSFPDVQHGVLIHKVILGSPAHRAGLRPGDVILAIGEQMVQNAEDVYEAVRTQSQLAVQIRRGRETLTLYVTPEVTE
- PROTOCOL_TEXT: holdup assay
- Design: key: below the threshold = too weak to quantify, mostly under pKd 3.1 to 4
- TEST_PARAMETERS: plain residues with an end cap or a label only (N-terminal biotin on a linker: ado-ado)
PROPERTY_LABEL: pKd

1. FNSYSLTGYV [CLDN2, P57739] ... 4.48
2. SARSRLSSNL [HCN2, Q9UL51] ... below the threshold
3. QPCFNKLFPL [LPXN, O60711] ... 4.1
4. IKAIVDLTGL [TRAF2, Q12933] ... below the threshold
5. DDENIRTSDV [PLEKHA2, Q9HB19] ... below the threshold
6. SKENVQETQI [LRRC4B, Q9NT99] ... below the threshold
7. QGLAERISVL [PRKD2, Q9BZL6] ... below the threshold
8. CLREWCDAFL [BANF1, O75531] ... 3.91
9. EKKTLIGIKL [GOT1L1, Q8NHS2] ... below the threshold
10. VNKSKLLTDV [KCNA1, Q09470] ... below the threshold
